Form field: Baseline (one value per entry).
# Tested on: Rattus norvegicus
# test_protocol: Activated partial thromboplastin time at 15 min following intravenous administration in rats at a dose 8 mg/kg
# Type: functional
Residues, ends and D or L forms follow the SMILES beside them.
Record the value in %, omitting the unit from your answer.

Use these answered entries as a reference point.
CC[C@H](C)[C@H](NC(=O)C1C2CCC(CC2)N1C(=O)[C@H](CCC(=O)O)NC(=O)[C@H](Cc1ccccc1)NC(=O)[C@H](CC(=O)O)NC(=O)CNC(=O)c1ccc(NC(=N)N)cc1)C(=O)N1CCC[C@H]1C(=O)N[C@@H](CCC(=O)O)C(=O)N[C@@H](CCC(=O)O)C(=O)N[C@@H](Cc1ccc(P(=O)(O)O)cc1)C(=O)N[C@@H](CC(C)C)C(=O)N[C@H](CCC(=O)O)C(=O)O (stereo partly specified)	200
CC[C@H](C)[C@H](NC(=O)C1C2CCC(CC2)N1C(=O)[C@H](CCC(=O)O)NC(=O)[C@H](Cc1ccccc1)NC(=O)[C@H](CC(=O)O)NC(=O)CNC(=O)c1ccc(NC(=N)N)cc1)C(=O)N1CCC[C@H]1C(=O)N[C@@H](CCC(=O)O)C(=O)N[C@@H](CCC(=O)O)C(=O)N[C@@H](Cc1ccc(OP(=O)(O)O)cc1)C(=O)N[C@@H](CC(C)C)C(=O)N[C@H](CCC(=O)O)C(=O)O (stereo partly specified)	125
CC[C@H](C)[C@H](NC(=O)C1C2CCC(CC2)N1C(=O)[C@H](CCC(=O)O)NC(=O)[C@H](Cc1ccccc1)NC(=O)[C@H](CC(=O)O)NC(=O)CNC(=O)c1ccc(NC(=N)N)cc1)C(=O)N1CCC[C@H]1C(=O)N[C@@H](CCC(=O)O)C(=O)N[C@@H](CCC(=O)O)C(=O)N[C@@H](Cc1ccc(O)cc1)C(=O)N[C@@H](CC(C)C)C(=O)N[C@H](CCC(=O)O)C(=O)O (stereo partly specified)	115
CC[C@H](C)[C@H](NC(=O)C1C2CCC(CC2)N1C(=O)[C@H](CCC(=O)O)NC(=O)[C@H](Cc1ccccc1)NC(=O)[C@H](CC(=O)O)NC(=O)CNC(=O)c1ccc(NC(=N)N)cc1)C(=O)N1CCC[C@H]1C(=O)N[C@@H](CCC(=O)O)C(=O)N[C@@H](CCC(=O)O)C(=O)N[C@@H](Cc1ccc(O)cc1P(=O)(O)O)C(=O)N[C@@H](CC(C)C)C(=O)N[C@H](CCC(=O)O)C(=O)O (stereo partly specified)	192

// field: Baseline; key: CC[C@H](C)[C@H](NC(=O)C1C2CCC(CC2)N1C(=O)[C@H](CCC(=O)O)NC(=O)[C@H](Cc1ccccc1)NC(=O)[C@H](CC(=O)O)NC(=O)CNC(=O)c1ccc(NC(=N)N)cc1)C(=O)N1CCC[C@H]1C(=O)N[C@@H](CCC(=O)O)C(=O)N[C@@H](CCC(=O)O)C(=O)N[C@@H](Cc1ccc(O)cc1)C(=O)N[C@@H](CC(C)C)C(=O)O (stereo partly specified) (HELM PEPTIDE1{[N=C(N)Nc1ccc(C(=O)[*:2])cc1].G.D.F.E.[O=C(C1C2CCC(CC2)N1[*:1])[*:2]].I.P.E.E.Y.L}$$$$V2.0) ; value = 108

// field: Baseline; key: CC[C@H](C)[C@H](NC(=O)C1C2CCC(CC2)N1C(=O)[C@H](CCC(=O)O)NC(=O)[C@H](Cc1ccccc1)NC(=O)[C@H](CC(=O)O)NC(=O)CNC(=O)c1ccc(NC(=N)N)cc1)C(=O)N1CCC[C@H]1C(=O)N[C@@H](CCC(=O)O)C(=O)N[C@@H](CCC(=O)O)C(=O)N[C@@H](Cc1ccc(CC(=O)O)cc1)C(=O)N[C@@H](CC(C)C)C(=O)N[C@H](CCC(=O)O)C(=O)O (stereo partly specified) ; value = 149

###

# Tested on: Rattus norvegicus
# test_protocol: Activated partial thromboplastin time at 5 min following intravenous administration in rats at a dose 8 mg/kg
# Type: functional
Residues, ends and D or L forms follow the SMILES beside them.
hey, just use condition met if measured Baseline is less than 200%, otherwise condition not met

CC[C@H](C)[C@H](NC(=O)C1C2CCC(CC2)N1C(=O)[C@H](CCC(=O)O)NC(=O)[C@H](Cc1ccccc1)NC(=O)[C@H](CC(=O)O)NC(=O)CNC(=O)c1ccc(NC(=N)N)cc1)C(=O)N1CCC[C@H]1C(=O)N[C@@H](CCC(=O)O)C(=O)N[C@@H](CCC(=O)O)C(=O)N[C@@H](Cc1ccc(CC(=O)O)cc1)C(=O)N[C@@H](CC(C)C)C(=O)N[C@H](CCC(=O)O)C(=O)O (stereo partly specified)	condition met
CC[C@H](C)[C@H](NC(=O)C1C2CCC(CC2)N1C(=O)[C@H](CCC(=O)O)NC(=O)[C@H](Cc1ccccc1)NC(=O)[C@H](CC(=O)O)NC(=O)CNC(=O)c1ccc(NC(=N)N)cc1)C(=O)N1CCC[C@H]1C(=O)N[C@@H](CCC(=O)O)C(=O)N[C@@H](CCC(=O)O)C(=O)N[C@@H](Cc1ccc(O)cc1)C(=O)N[C@@H](CC(C)C)C(=O)O (stereo partly specified) (HELM PEPTIDE1{[N=C(N)Nc1ccc(C(=O)[*:2])cc1].G.D.F.E.[O=C(C1C2CCC(CC2)N1[*:1])[*:2]].I.P.E.E.Y.L}$$$$V2.0)	condition met
CC[C@H](C)[C@H](NC(=O)C1C2CCC(CC2)N1C(=O)[C@H](CCC(=O)O)NC(=O)[C@H](Cc1ccccc1)NC(=O)[C@H](CC(=O)O)NC(=O)CNC(=O)c1ccc(NC(=N)N)cc1)C(=O)N1CCC[C@H]1C(=O)N[C@@H](CCC(=O)O)C(=O)N[C@@H](CCC(=O)O)C(=O)N[C@@H](Cc1ccc(OP(=O)(O)O)cc1)C(=O)N[C@@H](CC(C)C)C(=O)N[C@H](CCC(=O)O)C(=O)O (stereo partly specified)	condition met
CC[C@H](C)[C@H](NC(=O)C1C2CCC(CC2)N1C(=O)[C@H](CCC(=O)O)NC(=O)[C@H](Cc1ccccc1)NC(=O)[C@H](CC(=O)O)NC(=O)CNC(=O)c1ccc(NC(=N)N)cc1)C(=O)N1CCC[C@H]1C(=O)N[C@@H](CCC(=O)O)C(=O)N[C@@H](CCC(=O)O)C(=O)N[C@@H](Cc1ccc(O)cc1)C(=O)N[C@@H](CC(C)C)C(=O)N[C@H](CCC(=O)O)C(=O)O (stereo partly specified)	condition met
CC[C@H](C)[C@H](NC(=O)C1C2CCC(CC2)N1C(=O)[C@H](CCC(=O)O)NC(=O)[C@H](Cc1ccccc1)NC(=O)[C@H](CC(=O)O)NC(=O)CNC(=O)c1ccc(NC(=N)N)cc1)C(=O)N1CCC[C@H]1C(=O)N[C@@H](CCC(=O)O)C(=O)N[C@@H](CCC(=O)O)C(=O)N[C@@H](Cc1ccc(P(=O)(O)O)cc1)C(=O)N[C@@H](CC(C)C)C(=O)N[C@H](CCC(=O)O)C(=O)O (stereo partly specified)	condition not met

Query string: Consider the compound CC[C@H](C)[C@H](NC(=O)C1C2CCC(CC2)N1C(=O)[C@H](CCC(=O)O)NC(=O)[C@H](Cc1ccccc1)NC(=O)[C@H](CC(=O)O)NC(=O)CNC(=O)c1ccc(NC(=N)N)cc1)C(=O)N1CCC[C@H]1C(=O)N[C@@H](CCC(=O)O)C(=O)N[C@@H](CCC(=O)O)C(=O)N[C@@H](Cc1ccc(O)cc1P(=O)(O)O)C(=O)N[C@@H](CC(C)C)C(=O)N[C@H](CCC(=O)O)C(=O)O (stereo partly specified) . Is its Baseline strictly less than 200%?
Result string: condition not met

###

# Tested on: Rattus norvegicus
# test_protocol: Activated partial thromboplastin time at 3 min following intravenous administration in rats at a dose 8 mg/kg
# Assay type: functional
Residues, ends and D or L forms follow the SMILES beside them.
Form field: Baseline (one value per entry).
Record the value in %, omitting the unit from your answer.

Use these answered entries as a reference point.
CC[C@H](C)[C@H](NC(=O)C1C2CCC(CC2)N1C(=O)[C@H](CCC(=O)O)NC(=O)[C@H](Cc1ccccc1)NC(=O)[C@H](CC(=O)O)NC(=O)CNC(=O)c1ccc(NC(=N)N)cc1)C(=O)N1CCC[C@H]1C(=O)N[C@@H](CCC(=O)O)C(=O)N[C@@H](CCC(=O)O)C(=O)N[C@@H](Cc1ccc(OP(=O)(O)O)cc1)C(=O)N[C@@H](CC(C)C)C(=O)N[C@H](CCC(=O)O)C(=O)O (stereo partly specified)	162
CC[C@H](C)[C@H](NC(=O)C1C2CCC(CC2)N1C(=O)[C@H](CCC(=O)O)NC(=O)[C@H](Cc1ccccc1)NC(=O)[C@H](CC(=O)O)NC(=O)CNC(=O)c1ccc(NC(=N)N)cc1)C(=O)N1CCC[C@H]1C(=O)N[C@@H](CCC(=O)O)C(=O)N[C@@H](CCC(=O)O)C(=O)N[C@@H](Cc1ccc(CC(=O)O)cc1)C(=O)N[C@@H](CC(C)C)C(=O)N[C@H](CCC(=O)O)C(=O)O (stereo partly specified)	205
CC[C@H](C)[C@H](NC(=O)C1C2CCC(CC2)N1C(=O)[C@H](CCC(=O)O)NC(=O)[C@H](Cc1ccccc1)NC(=O)[C@H](CC(=O)O)NC(=O)CNC(=O)c1ccc(NC(=N)N)cc1)C(=O)N1CCC[C@H]1C(=O)N[C@@H](CCC(=O)O)C(=O)N[C@@H](CCC(=O)O)C(=O)N[C@@H](Cc1ccc(O)cc1)C(=O)N[C@@H](CC(C)C)C(=O)N[C@H](CCC(=O)O)C(=O)O (stereo partly specified)	145
CC[C@H](C)[C@H](NC(=O)C1C2CCC(CC2)N1C(=O)[C@H](CCC(=O)O)NC(=O)[C@H](Cc1ccccc1)NC(=O)[C@H](CC(=O)O)NC(=O)CNC(=O)c1ccc(NC(=N)N)cc1)C(=O)N1CCC[C@H]1C(=O)N[C@@H](CCC(=O)O)C(=O)N[C@@H](CCC(=O)O)C(=O)N[C@@H](Cc1ccc(P(=O)(O)O)cc1)C(=O)N[C@@H](CC(C)C)C(=O)N[C@H](CCC(=O)O)C(=O)O (stereo partly specified)	225

// field: Baseline; key: CC[C@H](C)[C@H](NC(=O)C1C2CCC(CC2)N1C(=O)[C@H](CCC(=O)O)NC(=O)[C@H](Cc1ccccc1)NC(=O)[C@H](CC(=O)O)NC(=O)CNC(=O)c1ccc(NC(=N)N)cc1)C(=O)N1CCC[C@H]1C(=O)N[C@@H](CCC(=O)O)C(=O)N[C@@H](CCC(=O)O)C(=O)N[C@@H](Cc1ccc(O)cc1P(=O)(O)O)C(=O)N[C@@H](CC(C)C)C(=O)N[C@H](CCC(=O)O)C(=O)O (stereo partly specified) ; value = 244

// field: Baseline; key: CC[C@H](C)[C@H](NC(=O)C1C2CCC(CC2)N1C(=O)[C@H](CCC(=O)O)NC(=O)[C@H](Cc1ccccc1)NC(=O)[C@H](CC(=O)O)NC(=O)CNC(=O)c1ccc(NC(=N)N)cc1)C(=O)N1CCC[C@H]1C(=O)N[C@@H](CCC(=O)O)C(=O)N[C@@H](CCC(=O)O)C(=O)N[C@@H](Cc1ccc(O)cc1)C(=O)N[C@@H](CC(C)C)C(=O)O (stereo partly specified) (HELM PEPTIDE1{[N=C(N)Nc1ccc(C(=O)[*:2])cc1].G.D.F.E.[O=C(C1C2CCC(CC2)N1[*:1])[*:2]].I.P.E.E.Y.L}$$$$V2.0) ; value = 123
